molecular target: Sodium channel protein type 9 subunit alpha (Homo sapiens); assay: Ex-Vivo Potencies in Inactivated state: The potencies of the compounds provided herein to block specific Na+ channels was measured using automated patch clamp electrophysiologically of Nav1.7 sodium channels (human SCN9A gene) stably expressed in CHO cells using the IonWorks Barracuda system. Currents were measured from the whole cell patch configuration. From a holding potential of −90 mV, membranes were subjected to a 200 ms pre-pulse to −120 mV, then pulsed to 0 mV to measure blockade of the tonic (resting) state. Inactivated state block was elicited by repolarization to −100 mV (20 ms pulse duration), followed by depolarization to 0 mV (20 ms pulse duration). Peak inward Na+ currents were measured in the presence of vehicle or various concentrations of the test compound to determine the percent block of current.; format: cell-based
Sequence (Q15858 whole entry): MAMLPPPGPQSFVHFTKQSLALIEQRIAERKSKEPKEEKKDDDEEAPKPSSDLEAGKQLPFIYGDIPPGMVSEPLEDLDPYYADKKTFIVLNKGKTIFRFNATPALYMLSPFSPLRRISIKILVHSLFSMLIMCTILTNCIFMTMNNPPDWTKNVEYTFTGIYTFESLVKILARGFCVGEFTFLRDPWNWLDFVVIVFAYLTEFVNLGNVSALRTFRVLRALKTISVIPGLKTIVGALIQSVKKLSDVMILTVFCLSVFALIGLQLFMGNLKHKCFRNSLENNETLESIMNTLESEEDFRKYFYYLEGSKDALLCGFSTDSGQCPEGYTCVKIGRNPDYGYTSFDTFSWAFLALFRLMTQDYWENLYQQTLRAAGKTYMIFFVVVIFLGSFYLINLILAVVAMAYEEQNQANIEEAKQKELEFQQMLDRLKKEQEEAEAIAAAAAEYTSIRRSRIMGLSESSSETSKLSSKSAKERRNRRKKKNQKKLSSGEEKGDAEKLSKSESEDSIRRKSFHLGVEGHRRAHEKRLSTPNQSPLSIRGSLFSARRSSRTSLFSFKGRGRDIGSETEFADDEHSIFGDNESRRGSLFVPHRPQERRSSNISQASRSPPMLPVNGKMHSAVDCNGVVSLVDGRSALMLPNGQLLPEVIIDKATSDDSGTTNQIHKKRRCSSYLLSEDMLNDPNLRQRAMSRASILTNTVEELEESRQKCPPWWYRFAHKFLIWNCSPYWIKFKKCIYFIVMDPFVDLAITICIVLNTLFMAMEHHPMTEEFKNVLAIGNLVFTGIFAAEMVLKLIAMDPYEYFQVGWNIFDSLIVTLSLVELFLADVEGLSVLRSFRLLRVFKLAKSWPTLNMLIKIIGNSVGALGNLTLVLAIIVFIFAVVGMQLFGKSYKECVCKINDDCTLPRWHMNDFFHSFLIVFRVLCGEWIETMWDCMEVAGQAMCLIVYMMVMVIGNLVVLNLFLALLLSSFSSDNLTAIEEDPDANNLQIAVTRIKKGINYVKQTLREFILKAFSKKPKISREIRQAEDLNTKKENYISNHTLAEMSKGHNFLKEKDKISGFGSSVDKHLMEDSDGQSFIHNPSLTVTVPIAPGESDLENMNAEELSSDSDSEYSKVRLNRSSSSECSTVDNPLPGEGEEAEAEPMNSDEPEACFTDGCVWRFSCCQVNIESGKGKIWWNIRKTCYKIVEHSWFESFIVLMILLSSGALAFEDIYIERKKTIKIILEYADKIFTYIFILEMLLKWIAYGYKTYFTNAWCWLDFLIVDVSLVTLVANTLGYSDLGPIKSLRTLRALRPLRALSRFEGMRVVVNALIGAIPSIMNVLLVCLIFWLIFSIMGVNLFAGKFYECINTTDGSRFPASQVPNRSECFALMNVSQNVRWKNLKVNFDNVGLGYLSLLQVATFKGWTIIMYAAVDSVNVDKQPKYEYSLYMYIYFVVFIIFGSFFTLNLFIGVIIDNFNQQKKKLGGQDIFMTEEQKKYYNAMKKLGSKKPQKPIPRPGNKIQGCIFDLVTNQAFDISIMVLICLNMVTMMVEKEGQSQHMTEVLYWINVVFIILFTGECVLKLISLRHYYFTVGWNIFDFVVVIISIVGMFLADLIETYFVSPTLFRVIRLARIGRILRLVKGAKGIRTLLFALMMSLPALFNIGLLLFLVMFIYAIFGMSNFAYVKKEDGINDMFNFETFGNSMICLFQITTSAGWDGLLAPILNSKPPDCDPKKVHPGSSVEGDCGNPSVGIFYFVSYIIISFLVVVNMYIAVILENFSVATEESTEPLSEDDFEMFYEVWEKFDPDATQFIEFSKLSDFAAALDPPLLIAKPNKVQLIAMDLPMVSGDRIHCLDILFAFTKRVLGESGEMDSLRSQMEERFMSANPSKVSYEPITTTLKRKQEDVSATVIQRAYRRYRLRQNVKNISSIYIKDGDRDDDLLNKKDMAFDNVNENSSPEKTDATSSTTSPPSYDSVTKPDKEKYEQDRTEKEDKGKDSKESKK
pIC50: −log10 of the molar value.
Below, each entry is listed alongside its reported pIC50.

Fill in: pIC50 of COCCOCCOCCN(C)C1CCN(c2nnc(-c3cccc(Cl)c3Cl)c(N)n2)CC1 is ___
> 4.30

New cases:
Requested field: pIC50. Item: Nc1nc(N2CCN(C3CCOCC3)CC2)nnc1-c1cccc(Cl)c1Cl
> 4.30

Further, for C[C@@H]1CN(c2nnc(-c3cccc(Cl)c3Cl)c(N)n2)C[C@H](C)N1 ?
> 4.30
